- assaySystem: human GcgR (Homo sapiens)
- Sequence (P47871 26-477): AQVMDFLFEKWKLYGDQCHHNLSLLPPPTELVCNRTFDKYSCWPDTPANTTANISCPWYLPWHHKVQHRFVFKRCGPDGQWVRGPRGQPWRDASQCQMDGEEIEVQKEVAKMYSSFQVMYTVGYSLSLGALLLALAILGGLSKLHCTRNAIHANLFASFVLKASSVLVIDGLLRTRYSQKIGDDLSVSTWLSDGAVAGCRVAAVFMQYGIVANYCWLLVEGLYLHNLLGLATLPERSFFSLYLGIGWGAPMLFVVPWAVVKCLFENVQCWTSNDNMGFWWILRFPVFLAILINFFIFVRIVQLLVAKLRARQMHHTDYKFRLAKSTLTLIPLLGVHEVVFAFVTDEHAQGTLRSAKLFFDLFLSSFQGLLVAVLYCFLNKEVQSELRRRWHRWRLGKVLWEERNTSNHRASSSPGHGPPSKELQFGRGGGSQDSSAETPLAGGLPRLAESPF
- experimentalDetails: Functional cAMP activity in the presence of 1% HSA
- Assay type: cell-based
- experimentalConditions: read-out: cAMP Rel EC50, hGcgR
Starred links: 1 amine or outer side, 2 acyl side, 3 side chain; linkers in the order of their positions; H or OH if unused. Non-standard residues stand in square brackets, D forms with d. Groups on a side chain read outwards from the residue. No end group written: not given here. *: point of attachment. C20 diacid = O=C(O)CCCCCCCCCCCCCCCCCCC(=O)*; C18 diacid = O=C(O)CCCCCCCCCCCCCCCCC(=O)*; αMePhe(2-F) = C[C@](N)(Cc1ccccc1F)C(=O)O; γGlu = O=C(O)[C@H](CCC(=O)[*:2])N[*:1]; αMe4Pal = C[C@](N)(Cc1ccncc1)C(=O)O; αMeY = C[C@](N)(Cc1ccc(O)cc1)C(=O)O; 4Pal = N[C@@H](Cc1ccncc1)C(=O)O; αMeL = CC(C)C[C@](C)(N)C(=O)O; αMeS = C[C@](N)(CO)C(=O)O; Orn = NCCC[C@H](N)C(=O)O; AEEA = NCCOCCOCC(=O)O; Aib = CC(C)(N)C(=O)O
measurementType: EC50
Record the result as number plus unit.

Observe how each entry below is paired with its result.
substance | recordedResult
H-Y[Aib]QGTFTSDFSK[αMeL]LDKK([AEEA-γGlu-C18 diacid])AQ[Aib]AFIEYLIEGGPSSGAPPPSEG-NH2 [Example 49] | 1310 nM
H-Y[Aib]QGTFTSD[4Pal]S[Orn][αMeL]LD[Orn]K([γGlu-γGlu-C18 diacid])AQ[αMe4Pal]AFIE[αMeY]LIEGGPSSGAPPPSGS-NH2 [Example 1013] | 285 nM
H-Y[Aib]QGT[αMePhe(2-F)]TSD[4Pal][αMeS]I[αMeL]LD[Orn]K([AEEA-γGlu-C18 diacid])AQ[αMe4Pal]EFI[dE][αMeY]LIEGGPPS[Aib]EPPPSGSE-NH2 [Example 1200] | 278 nM
H-Y[Aib]QGTFTSD[4Pal]SR[αMeL]LDKK([AEEA-γGlu-C18 diacid])AQ[Aib]AFIEYLLE[Aib]GESSGAPPPSGS-NH2 [Example 132] | 632 nM
H-Y[Aib]QGTFTSDFSK[αMeL]LDKK([AEEA-γGlu-C20 diacid])AQ[Aib]AFIEYLLAGGPSSGEPPPSEE-NH2 [Example 4] | 1580 nM
H-Y[Aib]QGTFTSDFSK[αMeL]LDKK([AEEA-γGlu-C18 diacid])AQ[Aib]AFIEYLIEGGESSGAPPPSGS-NH2 [Example 215] | 1510 nM

In one line, give reported EC50 of the entry H-Y[Aib]QGT[αMePhe(2-F)]TSDYSILLDKIAQK([AEEA-γGlu-C20 diacid])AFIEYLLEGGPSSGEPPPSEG-NH2 [Example 293] .
1740 nM

Give reported EC50 value for Y[Aib]QGT[αMePhe(2-F)]TSD[4Pal]SILLDKK([γGlu-γGlu-C18 diacid])AQ[Aib]AFIEWLQEGGPSSGAPPPSGTEE-NH2 [Example 578]
781 nM

Please report EC50 for the following substance: Y[Aib]QGT[αMePhe(2-F)]TSD[4Pal]SI[αMeL]LD[Orn]QAQ[αMe4Pal][Orn]FI[dE][αMeY]LIEGGPSSGEPPPETE-NH2 [Example 1230]
68.4 nM

Answer with the recorded EC50 for the substance listed here: H-Y[Aib]QGT[αMePhe(2-F)]TSD[4Pal]SI[αMeL]LD[Orn]K([AEEA-γGlu-C18 diacid])AQ[αMe4Pal][Orn]FI[dE][αMeY]LIEGGPSSGDPPPETE-NH2 [Example 730]
216 nM

// Input: H-Y[Aib]QGTFTSD[4Pal]SK[αMeL]LDKK([AEEA-γGlu-C18 diacid])AQ[Aib]AFIEYLIA[Aib]GESSGAPPPSGS-NH2 [Example 285] . Output its EC50 only.
409 nM

Reference source: patent US20240270821A1
